B1: VH:VL chains; a variant is named by its letters at X, in order (parent)
chain 1: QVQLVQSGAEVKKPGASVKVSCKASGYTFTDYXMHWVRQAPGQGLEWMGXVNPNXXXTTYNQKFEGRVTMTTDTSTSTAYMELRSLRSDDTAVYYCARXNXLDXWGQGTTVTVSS
chain 2: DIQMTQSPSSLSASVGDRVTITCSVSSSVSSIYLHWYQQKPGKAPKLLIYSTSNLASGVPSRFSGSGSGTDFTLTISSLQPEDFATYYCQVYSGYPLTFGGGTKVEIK

# Variants of: B1
# procedure_details: yeast display scFab, FACS + sequencing
observable: non-specific binding call

> print(dat)
                alteration  measured.result
 1                VRGRGALF            binds
 2                VKEKGALD            binds
 3                VGGKNSVD       no binding
 4  FAKTDAGF chain 1 G108D            binds
 5                VEGGGSSV       no binding
 6                YRAKSALV            binds
 7                DRRGSDAV       no binding
 8                DTREGDAV       no binding
 9                DKAKGDGS       no binding
10                VEKTGVGA            binds
11                YTEETDGF            binds
12                YKREGSAV       no binding
13                FRGRDYAA            binds
14                VKARGSVD            binds
15                YTGTSAGV       no binding
16                YTEKTFSD            binds
17                DKEEADGV       no binding
18                DAARAVSS            binds
19                YKGRGAVS            binds
20                VERGGFGS            binds
21                SEGTSAVF       no binding
22                FRGESSAD            binds
23                VTGGDSSA       no binding
24                DTTGSDAV       no binding
25                FEKGSDVA       no binding
26                VKEKGDWV       no binding
27                VTAGSDAV       no binding
28                VKGRADAA       no binding
29                VRGGDDGS       no binding
30                FKGRGAWS            binds
31                VRTGDSLD       no binding
32                VGGGNAGD       no binding
33                YRKEAAWV            binds
34                YRGRGVGS            binds
35                YAGTGFWV            binds
36                DGGKNDLA       no binding
37                YRTKASLD            binds
38                DRRGDSSA       no binding
39                YKGRDAGD            binds
40                YRRGGFGA            binds
41                DATGGSLD       no binding
42                FARKSDSS       no binding
43                ARKTGAGA            binds
44                DRAGDDLY       no binding
45                FAARDSGA       no binding
46                VTEGGDAA       no binding
